Recorded measurements of %-inhibition of SGK2, one per entry
Biological target: panel of more than 300 wild-type and mutant kinases (313 kinase panel) (Homo sapiens, UniProt Q9HBY8)
Sequence (Q9HBY8 1-367): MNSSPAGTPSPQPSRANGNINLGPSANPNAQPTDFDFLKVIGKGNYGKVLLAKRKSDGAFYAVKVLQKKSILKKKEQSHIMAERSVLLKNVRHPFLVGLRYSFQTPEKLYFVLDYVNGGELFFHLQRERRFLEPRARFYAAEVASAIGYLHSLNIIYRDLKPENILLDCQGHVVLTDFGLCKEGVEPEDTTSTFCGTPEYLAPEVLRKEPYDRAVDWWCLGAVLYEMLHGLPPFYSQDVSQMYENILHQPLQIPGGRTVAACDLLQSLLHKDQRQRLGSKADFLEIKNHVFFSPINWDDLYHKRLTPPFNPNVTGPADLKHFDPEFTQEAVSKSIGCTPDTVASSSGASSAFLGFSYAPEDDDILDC
Assay: Kinase profiling in a biochemical assay panel (mobility shift assays and ELISA), %-inhibition at 1 μM; selectivity entropy
Details: kinase SGK2; 1 μM
Dear colleague, please return just the value in %, with no unit written.

Below are worked cases with known answers.
COc1cc2nccc(Oc3ccc(NC(=O)C4(C(=O)Nc5ccc(F)cc5)CC4)cc3)c2cc1OC [cabozantinib]: -1.48
COc1cc2c(Nc3ccc(Br)cc3F)ncnc2cc1OCC1CCN(C)CC1: -2
Cc1ccc(C(=O)Nc2ccc(CN3CCN(C)CC3)c(C(F)(F)F)c2)cc1C#Cc1cnc2cccnn12: 12
COc1cc(Nc2c(C#N)cnc3cc(OCCCN4CCN(C)CC4)c(OC)cc23)c(Cl)cc1Cl: -3.37
CC(=O)Nc1cccc(-n2c(=O)n(C3CC3)c(=O)c3c(Nc4ccc(I)cc4F)n(C)c(=O)c(C)c32)c1: -7

Recorded %-inhibition of SGK2 of "C[C@@H](Oc1cc(-c2cnn(C3CCNCC3)c2)cnc1N)c1c(Cl)ccc(F)c1Cl" , please.
-2.31

Record request: %-inhibition of SGK2 value, item "Cc1cn(-c2cc(NC(=O)c3ccc(C)c(Nc4nccc(-c5cccnc5)n4)c3)cc(C(F)(F)F)c2)cn1"
24

For the compound "CCCS(=O)(=O)Nc1ccc(F)c(C(=O)c2c[nH]c3ncc(-c4ccc(Cl)cc4)cc23)c1F" , what %-inhibition of SGK2 is on record?
2.66

Values from paper PMC3961306
